From: the supplement of paper PMC11208160

assay: recombinant barcode read abundance after kanamycin selection (control-corrected) (log10(CPM+1)); higher = more efficient recombination; sequences stand for … in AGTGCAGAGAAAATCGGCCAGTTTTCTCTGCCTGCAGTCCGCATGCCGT…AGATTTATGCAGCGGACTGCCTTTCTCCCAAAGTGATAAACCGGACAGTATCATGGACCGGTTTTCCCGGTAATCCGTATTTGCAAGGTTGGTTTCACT; site = the 11-nt target
Give measured recombinant barcode read abundance (log10) for each item. Keep answers brief.
Give bare numbers.

What recombinant barcode read abundance (log10) value was documented for this sequence, CCGTAGCCTTGGGTTCTAACCTGTTGCCT (site CCGTAGCCTAG) ?
1.03

Try this sequence next: TAGACTACTTGGGTTCTAACCTGTTGCTA (site TAGACTACTAA)
0.198

Try this sequence next: TGTGGAGCTTGGGTTCTAACCTGTTGCCG (site TGTAGAGCTCG)
0.448

Try this sequence next: GAGGGAGCTTGGGTTCTAACCTGTTGCAT (site GAGAGAGCTAT)
1.33

Try this sequence next: GAGAGATCTTGGGTTCTAACCTGTTGCCT (site GAGAAATCTAG)
0.749

Try this sequence next: TAGACATCTTGGGTTCTAACCTGTTGCGT (site CGCTTTACTCG)
0.125

Parameters: items (list). Returns: recombinant barcode read abundance (log10) for each item.
1. CGGGTGCCTTGGGTTCTAACCTGTTGCCT (site CTGGTGCCTAG)
2. CATTATTCTTGGGTTCTAACCTGTTGCCT (site CATCATTCTAG)
3. CAAGTTGCTTGGGTTCTAACCTGTTGCCT (site CAAGTAGCTAG)
4. CTCTTGTCTTGGGTTCTAACCTGTTGCCA (site CGCTTGTCTCG)
5. CCGGGGTCTTGGGTTCTAACCTGTTGCCT (site CCGGGGTCTAG)

[0.0879, 0.0417, 0.14, 0.391, 1.76]

----------
assay: recombinant barcode read abundance after kanamycin selection (control-corrected) (log10(CPM+1)); higher = more efficient recombination; sequences stand for … in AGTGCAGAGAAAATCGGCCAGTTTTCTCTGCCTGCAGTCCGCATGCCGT…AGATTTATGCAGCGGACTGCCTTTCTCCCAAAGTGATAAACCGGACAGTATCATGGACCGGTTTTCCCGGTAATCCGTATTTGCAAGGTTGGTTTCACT; site = the 11-nt target
Binary classification by recombinant barcode read abundance (log10), with 0.2 as an inclusive lower bound for True; all other cases are False.

Here are 3 sequences together with their reported answers.
Does the reported recombinant barcode read abundance (log10) for TCCACAGCTTGGGTTCTAACCTGTTGCCT (site TCCACAACTAG) fall at or above the 0.2 mark?
False

Try this sequence next: CTTAGGACTTGGGTTCTAACCTGTTGCCC (site CTTAGGACTGG)
True

Try this sequence next: GCCGAGTCTTGGGTTCTAACCTGTTGCTT (site GCCGAGTCTGA)
False

New cases:
Does the reported recombinant barcode read abundance (log10) for TCGTGCTCTTGGGTTCTAACCTGTTGCCT (site TCGTGCTCTAG) fall at or above the 0.2 mark?
False

Try this sequence next: AATTGGACTTGGGTTCTAACCTGTTGCTT (site TATTGGACTAA)
True

Try this sequence next: GCAAGTTCTTGGGTTCTAACCTGTTGCCT (site GCAAGTTCTAG)
True

----------
test: recombinant UMI read abundance after kanamycin selection (control-corrected) (log10(CPM+1)); higher = more efficient recombination; extreme values may be limits of the assay; sequences stand for … in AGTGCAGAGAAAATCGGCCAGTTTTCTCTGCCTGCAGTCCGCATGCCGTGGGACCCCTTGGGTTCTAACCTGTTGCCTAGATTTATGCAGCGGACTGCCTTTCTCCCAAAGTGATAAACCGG…AGGTTGGTTTCACT; site = the 11-nt donor
Give measured recombinant UMI read abundance (log10) for each item. Keep answers brief.
One number for each entry.

Answered examples (6):
What recombinant UMI read abundance (log10) value was documented for this sequence, GGTAGAACATGGACCGGTTTTCCCGGTAATCCGTATTTGTA (site GGTAGAACTTA) ?
1.39

Try this sequence next: CACAGGGCATGGACCGGTTTTCCCGGTAATCCGTATTTGAG (site CACAGGGCTCT)
1.97

Try this sequence next: GACCTCTCATGGACCGGTTTTCCCGGTAATCCGTATTTGTA (site GACCTCTCTTA)
2.09

Try this sequence next: AGGCTTTCATGGACCGGTTTTCCCGGTAATCCGTATTTGAC (site AGACTTTCTGT)
0.817

Try this sequence next: GTTCTTCCATGGACCGGTTTTCCCGGTAATCCGTATTTGGT (site GTTCTTCCTAC)
0.00538

Try this sequence next: ACTAGTGCATGGACCGGTTTTCCCGGTAATCCGTATTTGGT (site ACTTGTGCTAC)
0.26

Parameters: items (list). Returns: recombinant UMI read abundance (log10) for each item.
1. CGAGGACCATGGACCGGTTTTCCCGGTAATCCGTATTTGTG (site CGAGGACCTCG)
2. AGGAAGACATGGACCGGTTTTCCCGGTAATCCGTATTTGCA (site AGGTGGACTTG)
3. ATGGTTCCATGGACCGGTTTTCCCGGTAATCCGTATTTGTC (site ATGGTTCCTGA)

0
0.577
1.67

Parameters: items (list). Returns: recombinant UMI read abundance (log10) for each item.
1. CCTAAATCATGGACCGGTTTTCCCGGTAATCCGTATTTGAT (site CCTAAATCTAT)
2. CGAGGACCATGGACCGGTTTTCCCGGTAATCCGTATTTGGG (site CGAGGACCTCT)
3. GGGGTGGCATGGACCGGTTTTCCCGGTAATCCGTATTTGGT (site GGCGTGGCTAC)
4. CCCTTATCATGGACCGGTTTTCCCGGTAATCCGTATTTGCA (site CCCTTATCTTG)
5. GGGGAGCCATGGACCGGTTTTCCCGGTAATCCGTATTTGAA (site GGGGAGCCTTT)

[0.00669, 0.0267, 0.0131, 2.15, 0]

Parameters: items (list). Returns: recombinant UMI read abundance (log10) for each item.
1. CACTTGGCATGGACCGGTTTTCCCGGTAATCCGTATTTGGA (site GACTTGGCTTC)
2. CACGCCCCATGGACCGGTTTTCCCGGTAATCCGTATTTGTT (site CACGTCCCTAA)
3. CGATCGACATGGACCGGTTTTCCCGGTAATCCGTATTTGTT (site CGATTGACTAA)
4. GTTCCAGCATGGACCGGTTTTCCCGGTAATCCGTATTTGCA (site GTTCTAGCTTG)
5. GATCTTCCATGGACCGGTTTTCCCGGTAATCCGTATTTGAT (site GATCTTCCTAT)
6. CGCCCATCATGGACCGGTTTTCCCGGTAATCCGTATTTGCT (site CGATCATCTAG)

0.112
0.0223
0.0149
0
0.048
0.57

----------
experiment: recombinant UMI read abundance after kanamycin selection (control-corrected) (log10(CPM+1)); higher = more efficient recombination; extreme values may be limits of the assay; sequences stand for … in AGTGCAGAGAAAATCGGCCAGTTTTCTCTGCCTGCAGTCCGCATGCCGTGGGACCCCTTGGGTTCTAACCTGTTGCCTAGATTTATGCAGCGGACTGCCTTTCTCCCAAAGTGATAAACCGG…AGGTTGGTTTCACT; site = the 11-nt donor
Binary classification by recombinant UMI read abundance (log10), with 0.008 as an inclusive lower bound for MET; all other cases are NOT MET.

Does the reported recombinant UMI read abundance (log10) for CTAGGACCATGGACCGGTTTTCCCGGTAATCCGTATTTGGG (site CCAGGACCTCC) fall at or above the 0.008 mark?
MET

Try this sequence next: CCCGGTCCATGGACCGGTTTTCCCGGTAATCCGTATTTGCT (site CCCGGTCCTAG)
NOT MET

Try this sequence next: CTCCCTTCATGGACCGGTTTTCCCGGTAATCCGTATTTGAG (site CTCCCTACTCT)
MET

Try this sequence next: CACGCCTCATGGACCGGTTTTCCCGGTAATCCGTATTTGCC (site CACACCTCTGG)
MET

Try this sequence next: ATGGGAGCATGGACCGGTTTTCCCGGTAATCCGTATTTGCT (site ATGGGAGCTAG)
MET

Try this sequence next: AACTATACATGGACCGGTTTTCCCGGTAATCCGTATTTGAC (site ACCTATACTGT)
MET

Try this sequence next: AGCAATACATGGACCGGTTTTCCCGGTAATCCGTATTTGCA (site AGCAATACTTG)
MET

Try this sequence next: GGTACGTCATGGACCGGTTTTCCCGGTAATCCGTATTTGTT (site GGTACGTCTGA)
NOT MET

Try this sequence next: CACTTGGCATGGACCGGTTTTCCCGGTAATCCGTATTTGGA (site CACTTGGCTCC)
MET

Try this sequence next: CGGAATCCATGGACCGGTTTTCCCGGTAATCCGTATTTGGG (site CGGAATCCTAA)
NOT MET

New cases:
Does the reported recombinant UMI read abundance (log10) for TCCAATCCATGGACCGGTTTTCCCGGTAATCCGTATTTGCC (site TCCAATACTGG) fall at or above the 0.008 mark?
NOT MET

Try this sequence next: AGCTGGTCATGGACCGGTTTTCCCGGTAATCCGTATTTGTA (site AGCTGGTCTTA)
MET

Try this sequence next: ACCTCAGCATGGACCGGTTTTCCCGGTAATCCGTATTTGGG (site AGCTCAGCTCC)
MET

Try this sequence next: CCCGGTCCATGGACCGGTTTTCCCGGTAATCCGTATTTGCT (site CCCGGTCCTCG)
NOT MET
